# SYSTEM NAME: T1, human NPR1 on HEK293/hNPR1.myc.DDK cells (0 hANP) (human, UniProt P16066 33-1061)
# T1 construct: Full-length receptor on engineered HEK293 cells, no ANP added; also called HEK293/hNPR1.myc.DKK
# T1 sequence: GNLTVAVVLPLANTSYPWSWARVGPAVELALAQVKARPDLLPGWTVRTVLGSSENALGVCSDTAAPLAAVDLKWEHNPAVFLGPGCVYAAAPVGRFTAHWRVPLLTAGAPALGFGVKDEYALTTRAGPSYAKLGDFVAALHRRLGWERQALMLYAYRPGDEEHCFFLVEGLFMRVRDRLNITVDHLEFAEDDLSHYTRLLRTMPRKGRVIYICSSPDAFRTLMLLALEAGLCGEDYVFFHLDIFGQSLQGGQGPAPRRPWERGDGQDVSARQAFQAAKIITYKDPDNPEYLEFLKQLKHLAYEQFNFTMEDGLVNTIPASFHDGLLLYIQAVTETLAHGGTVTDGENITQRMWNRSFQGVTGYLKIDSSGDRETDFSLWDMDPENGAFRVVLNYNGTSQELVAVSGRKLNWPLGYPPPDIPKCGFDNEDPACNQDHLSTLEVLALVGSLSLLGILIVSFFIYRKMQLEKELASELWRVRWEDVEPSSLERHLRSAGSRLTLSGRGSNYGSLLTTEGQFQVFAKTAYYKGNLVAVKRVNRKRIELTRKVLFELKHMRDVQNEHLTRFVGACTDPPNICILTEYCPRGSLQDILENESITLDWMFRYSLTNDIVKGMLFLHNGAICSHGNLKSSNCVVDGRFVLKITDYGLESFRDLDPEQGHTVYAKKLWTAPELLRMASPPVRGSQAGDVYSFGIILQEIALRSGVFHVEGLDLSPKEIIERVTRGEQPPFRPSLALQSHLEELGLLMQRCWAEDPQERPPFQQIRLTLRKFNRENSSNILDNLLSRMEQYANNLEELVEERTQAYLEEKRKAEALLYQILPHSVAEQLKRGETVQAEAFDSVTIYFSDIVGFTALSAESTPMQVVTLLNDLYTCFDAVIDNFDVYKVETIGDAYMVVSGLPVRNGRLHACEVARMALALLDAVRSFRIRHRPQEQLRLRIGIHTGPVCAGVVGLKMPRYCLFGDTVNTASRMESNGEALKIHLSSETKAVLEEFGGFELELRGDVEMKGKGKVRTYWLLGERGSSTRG
# TEST METHOD NOTES: ECL cell binding (MSD), 0 hANP
Hi there, I'd appreciate the recorded EC50 for every entry that follows.
// return numeric value only (unit: nM, not printed)

Q) Can you share its EC50? I mean this binder: mAb22035 (antibody, human IgG4, V domains shown) VH: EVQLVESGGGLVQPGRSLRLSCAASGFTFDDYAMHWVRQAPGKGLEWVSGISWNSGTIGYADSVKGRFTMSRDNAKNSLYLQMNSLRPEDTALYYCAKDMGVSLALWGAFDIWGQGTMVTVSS VL: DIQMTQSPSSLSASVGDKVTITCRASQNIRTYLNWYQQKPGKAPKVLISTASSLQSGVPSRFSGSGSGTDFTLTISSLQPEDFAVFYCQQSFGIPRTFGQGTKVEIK
A) 2.3

Q) Another binder to check: mAb22033 (antibody, human IgG4, V domains shown) VH: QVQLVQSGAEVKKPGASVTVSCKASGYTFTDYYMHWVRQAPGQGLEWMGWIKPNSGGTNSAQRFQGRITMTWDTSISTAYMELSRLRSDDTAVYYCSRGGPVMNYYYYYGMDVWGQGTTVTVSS VL: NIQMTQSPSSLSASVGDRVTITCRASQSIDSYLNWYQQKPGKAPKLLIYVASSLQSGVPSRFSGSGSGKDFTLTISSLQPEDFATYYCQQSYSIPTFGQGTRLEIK
A) 0.49

Q) Another binder to check: mAb25497 (antibody, human IgG4, V domains shown) VH: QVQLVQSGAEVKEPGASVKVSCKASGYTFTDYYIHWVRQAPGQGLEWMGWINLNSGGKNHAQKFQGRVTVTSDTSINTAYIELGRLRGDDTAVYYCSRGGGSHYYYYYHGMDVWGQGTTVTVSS VL: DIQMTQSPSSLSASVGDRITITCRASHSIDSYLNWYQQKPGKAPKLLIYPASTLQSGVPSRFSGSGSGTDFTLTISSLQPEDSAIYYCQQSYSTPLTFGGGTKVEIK
A) 1.5

Q) Another binder to check: mAb25491 (antibody, human IgG4, V domains shown) VH: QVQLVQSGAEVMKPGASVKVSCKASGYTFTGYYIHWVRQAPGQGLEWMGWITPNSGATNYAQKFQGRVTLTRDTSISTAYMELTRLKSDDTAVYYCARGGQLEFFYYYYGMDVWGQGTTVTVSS VL: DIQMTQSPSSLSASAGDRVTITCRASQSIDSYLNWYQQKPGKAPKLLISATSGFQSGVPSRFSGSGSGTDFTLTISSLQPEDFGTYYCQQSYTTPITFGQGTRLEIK
A) 1.6
